The following binders are listed with their measured Kd values.
TESTED TARGET: T1, EsCas13d, nuclease-dead (Eubacterium siraeum, UniProt B0MS50, R295A;H300A;R849A;H854A)
T1 sequence: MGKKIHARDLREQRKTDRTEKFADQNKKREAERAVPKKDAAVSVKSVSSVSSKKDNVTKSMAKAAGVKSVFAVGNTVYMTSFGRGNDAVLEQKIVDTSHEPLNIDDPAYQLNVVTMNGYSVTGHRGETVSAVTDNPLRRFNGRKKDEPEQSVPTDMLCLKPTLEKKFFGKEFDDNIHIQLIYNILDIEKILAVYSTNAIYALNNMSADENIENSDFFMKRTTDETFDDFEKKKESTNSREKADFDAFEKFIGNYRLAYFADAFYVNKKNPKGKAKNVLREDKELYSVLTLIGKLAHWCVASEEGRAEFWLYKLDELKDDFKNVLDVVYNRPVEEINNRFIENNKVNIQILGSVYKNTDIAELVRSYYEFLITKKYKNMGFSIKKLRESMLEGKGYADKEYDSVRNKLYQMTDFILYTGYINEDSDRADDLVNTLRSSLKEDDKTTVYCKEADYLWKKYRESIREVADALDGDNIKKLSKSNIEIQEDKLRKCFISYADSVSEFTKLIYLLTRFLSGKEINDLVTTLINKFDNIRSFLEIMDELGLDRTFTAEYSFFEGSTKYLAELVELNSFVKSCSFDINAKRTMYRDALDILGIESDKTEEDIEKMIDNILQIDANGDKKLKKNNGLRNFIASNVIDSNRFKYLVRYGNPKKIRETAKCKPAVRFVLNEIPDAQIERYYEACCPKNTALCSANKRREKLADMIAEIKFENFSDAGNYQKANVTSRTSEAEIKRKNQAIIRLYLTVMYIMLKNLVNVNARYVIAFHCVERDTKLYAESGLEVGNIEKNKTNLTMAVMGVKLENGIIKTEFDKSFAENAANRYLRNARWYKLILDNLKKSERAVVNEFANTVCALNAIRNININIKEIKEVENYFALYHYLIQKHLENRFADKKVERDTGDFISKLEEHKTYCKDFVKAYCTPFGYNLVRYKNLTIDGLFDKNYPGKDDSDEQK
ASSAY INFO: crRNA (strand 1, pre-loaded); Mg2+; 40 mM Tris-HCl pH 7.5, 150 mM NaCl, 6 mM MgCl2, 1 mM DTT, 0.1% Tween-20, 0.2 mg/ml BSA; 25 C; 10 min per concentration, then washed
ASSAY CONDITIONS: tags: His6-TwinStrep-SUMO cleaved; N-terminal SNAP kept (SNAP-Surface 488); label: 3' end held by stalled T7 RNA polymerase
Give just the number in µM; leave the unit off.

The cases that follow already have their Kd on record.
target 1 insC 3' of 15 (mixed) RNA 1: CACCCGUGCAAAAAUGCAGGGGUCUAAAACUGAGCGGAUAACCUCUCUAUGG RNA 2: GGGAAUGGAUCCACAUCUACGAAUUCGUACCAUAGAGCAGGUUAUCCGCUCACCGAGAUCGGAAGAGCACACGU | 0.0163
target 1 MT 5'PFS UAA 3'PFS UCC (mixed) RNA 1: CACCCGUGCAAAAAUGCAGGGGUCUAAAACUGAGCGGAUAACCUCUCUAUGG RNA 2: GGGAAUGGAUCCACAUCUACGAAUUCUAACCAUAGAGAGGUUAUCCGCUCAUCCAGAUCGGAAGAGCACACGU | 0.0825
target 1 MT 5'PFS ACG 3'PFS ACU (mixed) RNA 1: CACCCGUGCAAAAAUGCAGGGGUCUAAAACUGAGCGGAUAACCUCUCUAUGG RNA 2: GGGAAUGGAUCCACAUCUACGAAUUCACGCCAUAGAGAGGUUAUCCGCUCAACUAGAUCGGAAGAGCACACGU | 0.0104
target 1 insU 3' of 12,insG 3' of 9 (mixed) RNA 1: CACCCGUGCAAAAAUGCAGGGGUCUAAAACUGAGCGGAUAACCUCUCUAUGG RNA 2: GGGAAUGGAUCCACAUCUACGAAUUCGUACCAUAGAGAGGUUUAGUCCGCUCACCGAGAUCGGAAGAGCACACGU | 0.0133
target 2 MT 5'PFS ACU 3'PFS AAG (mixed) RNA 1: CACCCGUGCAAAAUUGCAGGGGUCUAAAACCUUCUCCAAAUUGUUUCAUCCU RNA 2: GGGAAUGGAUCCACAUCUACGAAUUCACUAGGAUGAAACAAUUUGGAGAAGAAGAGAUCGGAAGAGCACACGU | 0.0037
target 1 insC 3' of 13,insC 3' of 3 (mixed) RNA 1: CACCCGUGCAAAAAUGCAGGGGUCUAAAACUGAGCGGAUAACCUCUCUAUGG RNA 2: GGGAAUGGAUCCACAUCUACGAAUUCGUACCAUAGAGAGCGUUAUCCGCUCCACCGAGAUCGGAAGAGCACACGU | 0.0138
target 3 insA 3' of 8,insG 3' of 6 (mixed) RNA 1: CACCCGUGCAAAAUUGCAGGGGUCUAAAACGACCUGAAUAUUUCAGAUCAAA RNA 2: GGGAAUGGAUCCACAUCUACGAAUUCGUUUUUGAUCUGAAAUAUAUCGAGGUCUGCAGAUCGGAAGAGCACACGU | 0.0455
target 1 G13C (mixed) RNA 1: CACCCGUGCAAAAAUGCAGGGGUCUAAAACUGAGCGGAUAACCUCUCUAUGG RNA 2: GGGAAUGGAUCCACAUCUACGAAUUCGUACCAUAGAGACGUUAUCCGCUCACCGAGAUCGGAAGAGCACACGU | 0.062

Value of Kd reported for the binder target 2 MT 5'PFS CGC 3'PFS UUA (mixed) RNA 1: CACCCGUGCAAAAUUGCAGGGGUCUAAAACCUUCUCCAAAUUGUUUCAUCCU RNA 2: GGGAAUGGAUCCACAUCUACGAAUUCCGCAGGAUGAAACAAUUUGGAGAAGUUAAGAUCGGAAGAGCACACGU is 0.0111

Value of Kd reported for the binder target 1 MT 5'PFS UGC 3'PFS UAG (mixed) RNA 1: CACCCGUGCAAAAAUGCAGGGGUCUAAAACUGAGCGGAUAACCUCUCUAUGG RNA 2: GGGAAUGGAUCCACAUCUACGAAUUCUGCCCAUAGAGAGGUUAUCCGCUCAUAGAGAUCGGAAGAGCACACGU is 0.0159

Sourced from paper PMC10786891
